Hello, the source for this data is patent US5977063A, in case you need it.

Test system: Staphylococcus aureus 489
Test: MIC, standard broth micro-dilution assay, SA 489
Assay type: cell-based
Parameters: unit not given here
Each entry below lists one item and its recorded Minimal Inhibitory Concentration (MIC) SA 489 value.
READOUT: Minimal Inhibitory Concentration (MIC) SA 489

[[record]]
structure_as_smiles = "C[C@@H]1O[C@@H](O[C@@H]2c3ccc(c(Cl)c3)Oc3cc4cc(c3O[C@@H]3O[C@H](CO)[C@@H](O)[C@H](O)[C@H]3O[C@H]3C[C@](C)(NCc5ccc(-c6ccc(Cl)cc6)cc5)[C@@H](O)[C@H](C)O3)Oc3ccc(cc3Cl)[C@@H](O)[C@@H](NCCCCCCc3ccccc3)C(=O)N[C@@H](CC(N)=O)C(=O)N[C@H]4C(=O)N[C@H]3C(=O)N[C@@H]2C(=O)N[C@H](C(=O)O)c2cc(O)cc(O)c2-c2cc3ccc2O)C[C@](C)(N)[C@H]1O"
study_target = "Staphylococcus aureus 489"
measured_number = 8

[[record]]
structure_as_smiles = "C[C@@H]1O[C@@H](O[C@@H]2c3ccc(c(Cl)c3)Oc3cc4cc(c3O[C@@H]3O[C@H](CO)[C@@H](O)[C@H](O)[C@H]3O[C@H]3C[C@](C)(NCc5ccc(-c6ccc(Cl)cc6)cc5)[C@@H](O)[C@H](C)O3)Oc3ccc(cc3Cl)[C@@H](O)[C@@H](NCc3ccc(-c5cc(C(F)(F)F)cc(C(F)(F)F)c5)cc3)C(=O)N[C@@H](CC(N)=O)C(=O)N[C@H]4C(=O)N[C@H]3C(=O)N[C@@H]2C(=O)N[C@H](C(=O)O)c2cc(O)cc(O)c2-c2cc3ccc2O)C[C@](C)(N)[C@H]1O"
study_target = "Staphylococcus aureus 489"
measured_number = 32


----------
Test system: Enterococcus faecium and faecalis (RESISTANT)
Format: cell-based
Settings: geometric mean of 4-6 isolates
Method: The antibacterial efficacy of the present compounds is illustrated by Table II. The minimal inhibitory concentrations (MICs) were determined using a standard broth micro-dilution assay.
In this section, each of the compounds is paired with its reported Minimal Inhibitory Concentration (MIC) RESISTANT.
READOUT: Minimal Inhibitory Concentration (MIC) RESISTANT

[[record]]
compound = "C[C@@H]1O[C@@H](O[C@H]2[C@H](Oc3c4cc5cc3Oc3ccc(cc3Cl)[C@@H](O[C@H]3C[C@](C)(NCc6ccccc6)[C@@H](O)[C@H](C)O3)[C@@H]3NC(=O)[C@H](NC(=O)[C@@H]5NC(=O)[C@H](CC(N)=O)NC(=O)[C@H](NCc5ccccc5)[C@H](O)c5ccc(c(Cl)c5)O4)c4ccc(O)c(c4)-c4c(O)cc(O)cc4[C@@H](C(=O)O)NC3=O)O[C@H](CO)[C@@H](O)[C@@H]2O)C[C@](C)(NCc2ccc(-c3ccccc3)cc2)[C@H]1O [Example 6]"
measured_number = 16

[[record]]
compound = "C[C@@H]1O[C@@H](O[C@@H]2c3ccc(c(Cl)c3)Oc3cc4cc(c3O[C@@H]3O[C@H](CO)[C@@H](O)[C@H](O)[C@H]3O[C@H]3C[C@](C)(NCc5ccc(-c6ccccc6)cc5)[C@@H](O)[C@H](C)O3)Oc3ccc(cc3Cl)[C@@H](O)[C@@H](NCc3ccccc3)C(=O)N[C@@H](CC(N)=O)C(=O)N[C@H]4C(=O)N[C@H]3C(=O)N[C@@H]2C(=O)N[C@H](C(=O)O)c2cc(O)cc(O)c2-c2cc3ccc2O)C[C@](C)(N)[C@H]1O [Example 5]"
measured_number = 23


----------
Tested on: Staphylococcus aureus 446
Experiment: MIC, standard broth micro-dilution assay, SA 446
Type: cell-based
Parameters: unit not given here
# key: entry, value: Minimal Inhibitory Concentration (MIC) SA 446
READOUT: Minimal Inhibitory Concentration (MIC) SA 446

[[record]]
compound = "C[C@@H]1O[C@@H](O[C@@H]2c3ccc(c(Cl)c3)Oc3cc4cc(c3O[C@@H]3O[C@H](CO)[C@@H](O)[C@H](O)[C@H]3O[C@H]3C[C@](C)(NCc5ccc(O)cc5)[C@@H](O)[C@H](C)O3)Oc3ccc(cc3Cl)[C@@H](O)[C@@H](NCc3ccc(O)cc3)C(=O)N[C@@H](CC(N)=O)C(=O)N[C@H]4C(=O)N[C@H]3C(=O)N[C@@H]2C(=O)N[C@H](C(=O)O)c2cc(O)cc(O)c2-c2cc3ccc2O)C[C@](C)(N)[C@H]1O"
measured_number = 16

[[record]]
compound = "C[C@@H]1O[C@@H](O[C@H]2[C@H](Oc3c4cc5cc3Oc3ccc(cc3Cl)[C@@H](O[C@H]3C[C@](C)(N)[C@@H](O)[C@H](C)O3)[C@@H]3NC(=O)[C@H](NC(=O)[C@@H]5NC(=O)[C@H](CC(N)=O)NC(=O)[C@H](NCCCCCCCCCCc5ccccc5)[C@H](O)c5ccc(c(Cl)c5)O4)c4ccc(O)c(c4)-c4c(O)cc(O)cc4[C@@H](C(=O)O)NC3=O)O[C@H](CO)[C@@H](O)[C@@H]2O)C[C@](C)(N)[C@H]1O"
measured_number = 2

[[record]]
compound = "C[C@@H]1O[C@@H](O[C@H]2[C@H](Oc3c4cc5cc3Oc3ccc(cc3Cl)[C@@H](O[C@H]3C[C@](C)(NCc6ccccc6)[C@@H](O)[C@H](C)O3)[C@@H]3NC(=O)[C@H](NC(=O)[C@@H]5NC(=O)[C@H](CC(N)=O)NC(=O)[C@H](NCc5ccccc5)[C@H](O)c5ccc(c(Cl)c5)O4)c4ccc(O)c(c4)-c4c(O)cc(O)cc4[C@@H](C(=O)O)NC3=O)O[C@H](CO)[C@@H](O)[C@@H]2O)C[C@](C)(NCc2ccc(-c3ccccc3)cc2)[C@H]1O"
measured_number = 2

[[record]]
compound = "CC1OC(OC2c3ccc(c(Cl)c3)Oc3cc4cc(c3OC3OC(CO)C(O)C(O)C3OC3CC(C)(N)C(O)C(C)O3)Oc3ccc(cc3Cl)C(O)C(NCCCCCCCCCCCCc3ccccc3)C(=O)NC(CC(N)=O)C(=O)NC4C(=O)NC3C(=O)NC2C(=O)NC(C(=O)O)c2cc(O)cc(O)c2-c2cc3ccc2O)CC(C)(N)C1O (centres unmarked)"
measured_number = 8

[[record]]
compound = "CCCCCCN[C@H]1C(=O)N[C@@H](CC(N)=O)C(=O)N[C@H]2C(=O)N[C@H]3C(=O)N[C@H](C(=O)N[C@H](C(=O)O)c4cc(O)cc(O)c4-c4cc3ccc4O)[C@H](O[C@H]3C[C@](C)(NCCCCCC)[C@@H](O)[C@H](C)O3)c3ccc(c(Cl)c3)Oc3cc2cc(c3O[C@@H]2O[C@H](CO)[C@@H](O)[C@H](O)[C@H]2O[C@H]2C[C@](C)(NCCCCCC)[C@@H](O)[C@H](C)O2)Oc2ccc(cc2Cl)[C@H]1O"
measured_number = 16


----------
System: Staphylococcus aureus 489
Experiment: MIC, standard broth micro-dilution assay, SA 489
Format: cell-based
Parameters: unit not given here
Each record here notes measured Minimal Inhibitory Concentration (MIC) SA 489.
READOUT: Minimal Inhibitory Concentration (MIC) SA 489

[[record]]
molecule = "C[C@@H]1O[C@@H](O[C@H]2[C@H](Oc3c4cc5cc3Oc3ccc(cc3Cl)[C@@H](O[C@H]3C[C@](C)(N)[C@@H](O)[C@H](C)O3)[C@@H]3NC(=O)[C@H](NC(=O)[C@@H]5NC(=O)[C@H](CC(N)=O)NC(=O)[C@H](NCc5ccc(O)cc5)[C@H](O)c5ccc(c(Cl)c5)O4)c4ccc(O)c(c4)-c4c(O)cc(O)cc4[C@@H](C(=O)O)NC3=O)O[C@H](CO)[C@@H](O)[C@@H]2O)C[C@](C)(N)[C@H]1O [Example 13, N^1 -(p-HYDROXYBENZYL)-DESLEUCYL-A82846B]"
study_target = "Staphylococcus aureus 489"
measured_number = 8

[[record]]
molecule = "C[C@@H]1O[C@@H](O[C@H]2[C@H](Oc3c4cc5cc3Oc3ccc(cc3Cl)[C@@H](O[C@H]3C[C@](C)(NCc6ccccc6)[C@@H](O)[C@H](C)O3)[C@@H]3NC(=O)[C@H](NC(=O)[C@@H]5NC(=O)[C@H](CC(N)=O)NC(=O)[C@H](NCc5ccccc5)[C@H](O)c5ccc(c(Cl)c5)O4)c4ccc(O)c(c4)-c4c(O)cc(O)cc4[C@@H](C(=O)O)NC3=O)O[C@H](CO)[C@@H](O)[C@@H]2O)C[C@](C)(NCc2ccc(-c3ccccc3)cc2)[C@H]1O [Example 6]"
study_target = "Staphylococcus aureus 489"
measured_number = 2


----------
Item-by-item account of Minimal Inhibitory Concentration (MIC) RESISTANT
Tested on: Enterococcus faecium and faecalis (RESISTANT)
Assay type: cell-based
Details: geometric mean of 4-6 isolates
READOUT: Minimal Inhibitory Concentration (MIC) RESISTANT

[[record]]
structure_as_smiles = "C[C@@H]1O[C@@H](O[C@H]2[C@H](Oc3c4cc5cc3Oc3ccc(cc3Cl)[C@@H](O[C@H]3C[C@](C)(N)[C@@H](O)[C@H](C)O3)[C@@H]3NC(=O)[C@H](NC(=O)[C@@H]5NC(=O)[C@H](CC(N)=O)NC(=O)[C@H](NCc5ccc(OCCCc6ccccc6)cc5)[C@H](O)c5ccc(c(Cl)c5)O4)c4ccc(O)c(c4)-c4c(O)cc(O)cc4[C@@H](C(=O)O)NC3=O)O[C@H](CO)[C@@H](O)[C@@H]2O)C[C@](C)(N)[C@H]1O"
bound_sign = ">"
measured_number = 128

[[record]]
structure_as_smiles = "C[C@@H]1O[C@@H](O[C@@H]2c3ccc(c(Cl)c3)Oc3cc4cc(c3O[C@@H]3O[C@H](CO)[C@@H](O)[C@H](O)[C@H]3O[C@H]3C[C@](C)(NCCCCCCc5ccccc5)[C@@H](O)[C@H](C)O3)Oc3ccc(cc3Cl)[C@@H](O)[C@@H](NCCCCCCc3ccccc3)C(=O)N[C@@H](CC(N)=O)C(=O)N[C@H]4C(=O)N[C@H]3C(=O)N[C@@H]2C(=O)N[C@H](C(=O)O)c2cc(O)cc(O)c2-c2cc3ccc2O)C[C@](C)(N)[C@H]1O"
bound_sign = "="
measured_number = 8

